- System: EKVX NSCLC
- TEST DETAILS: NCI tumour cell line growth inhibition, 48 h
ENDPOINT LABEL: TGI (µM)
Numbers only; they are read as µM.

Query: Which TGI value is on record for COc1cc(/C=C/c2cc(O)c(C(C)=O)c(O)c2)cc2c1O[C@]1(C)CC[C@@H](O)C(C)(C)[C@H]1C2 ?
Result: 72.9

Query: Which TGI value is on record for Nc1ncnc2c1nnn2C1OC(CO)C(O)C1O (stereo not drawn) ?
Result: 27.5

Query: Which TGI value is on record for O=C(/C=C\c1ccc(Cl)c(Cl)c1)c1ccc(Cl)cc1Cl ?
Result: 56.2

Query: Which TGI value is on record for CCN(CC)/C(SCc1ccccc1)=C(\C(Cl)=C(Cl)Cl)[N+](=O)[O-] ?
Result: 56.4
